- SYSTEM: mouse IgG (mouse)
- EXPERIMENT NOTES: SPR; Biacore 8K; antigen immobilised on CM5 chip by amine coupling at 1 ug/ml (tdTomato) or 5 ug/ml (GST, IgGs) in 10 mM sodium acetate pH 5.5; nanobody injected in single-cycle kinetics at 0.1-10 nM; 20 mM Na-Hepes pH 7.4, 150 mM NaCl, 0.05% Tween 20; Langmuir 1:1 model, RIgG-1 and GIgG-4 fit to a two-step binding model
pKd: −log10 of the molar value.
PROPERTY NAME: pKd

BINDER	pKd
LaMIgG-9 (VHH) VHH: QVQLVESGGGLVQAGGSLSLSCATSGRTGDLYAMAWFRQAPGAEREFVATVTAIGGATYYADSVKGRFTISASYARNMVYLQMNSLKPEDSAVYYCAASMKRVWPLHRSDEAEYWGQGTQVTVS	9.22

[I] LaMIgG-8 (VHH) VHH: QVQLVESGGGLVQAGGSLKLSCATSGFTFSTSVMNWFRQAPGKERDMVAFINPSGSTNYVDSVKGRFTISRDSTKNTVYLQMNSLKPEDTAVYYCQTRLLVDSGWRDYWGQGTQVTVS
[II] LaMIgG-5 (VHH) VHH: DVQLVESGGGSVQAGGSLRLSCAASGFIFSKDVMNWFRQAPGKERELVAFINPSGTTHYVDSVKGRFTISRDNVKSTVYLQMNDLKPDDTAVYYCQTRKFVGTTWRDYWGQGTQVTVS
[III] LaMIgG-14 (VHH) VHH: QVQLVESGGGLVQAGGSLRLSCAASGFTFSTSVMNWFRQAPGKEREMVAFINPSGSTHYVDSVKGRFTISRDSAKNTVYLQLNSLKPEDTAVYYCQTRLFVGAGWRDYWGQGTQVTVS
IN: Sort (3 binders) by pKd: min first. // ordering of labels required in reply
OUT: I, II, III
(I: 8.92, II: 9.38, III: 9.68)
